Study system: CYP3A4 (Homo sapiens)
Sequence (P08684 whole entry): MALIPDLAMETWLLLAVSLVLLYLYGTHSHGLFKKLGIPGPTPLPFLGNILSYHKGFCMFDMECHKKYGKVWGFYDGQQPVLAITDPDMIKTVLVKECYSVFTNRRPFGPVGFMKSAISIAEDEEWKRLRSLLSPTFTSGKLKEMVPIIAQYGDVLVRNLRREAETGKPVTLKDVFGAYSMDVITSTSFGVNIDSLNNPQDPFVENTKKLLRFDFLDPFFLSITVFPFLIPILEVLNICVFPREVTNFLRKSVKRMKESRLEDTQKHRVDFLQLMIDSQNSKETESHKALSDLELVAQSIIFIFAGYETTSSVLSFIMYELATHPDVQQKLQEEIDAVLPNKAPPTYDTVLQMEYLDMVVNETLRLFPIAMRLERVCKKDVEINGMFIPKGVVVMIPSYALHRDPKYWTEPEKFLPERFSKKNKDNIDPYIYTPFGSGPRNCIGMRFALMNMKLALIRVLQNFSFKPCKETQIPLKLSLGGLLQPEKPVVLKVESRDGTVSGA
Assay remarks: Determination of compound Kiapp against recombinant CYP3A4 enzyme (BFC fluorescent substrate)
Format: biochemical
Reported conditions: Super. enzyme preparation, read-out: Kiapp (BFC, Super.)
pKi: −log10 of the molar value.
Lab note: compare pKi against 8. Equal or greater, write label 1. Smaller, write label 0.

Some solved entries appear below for comparison.
{"Molecule": "Cc1cncc(NS(=O)(=O)c2ccccc2C(=O)NCCc2ccccc2OC(F)(F)F)c1", "Class assignment": "label 1"}
{"Molecule": "COc1cncc(NS(=O)(=O)c2ccc(Cl)cc2C(=O)NCc2ccc(F)cc2)c1", "Class assignment": "label 0"}
{"Molecule": "COc1cncc(NS(=O)(=O)c2ccccc2C(=O)NC(C)(C)c2ccccc2)c1", "Class assignment": "label 1"}

Form field: pKi at least 8? Entry: CCC(C)NC(=O)c1ccccc1S(=O)(=O)Nc1cncc(OC)c1 (centres unmarked) label 0

Ref: patent US7868026B2
